# SYSTEM TESTED: Amine oxidase [flavin-containing] A (Homo sapiens, UniProt P21397)
# Sequence (P21397 whole entry): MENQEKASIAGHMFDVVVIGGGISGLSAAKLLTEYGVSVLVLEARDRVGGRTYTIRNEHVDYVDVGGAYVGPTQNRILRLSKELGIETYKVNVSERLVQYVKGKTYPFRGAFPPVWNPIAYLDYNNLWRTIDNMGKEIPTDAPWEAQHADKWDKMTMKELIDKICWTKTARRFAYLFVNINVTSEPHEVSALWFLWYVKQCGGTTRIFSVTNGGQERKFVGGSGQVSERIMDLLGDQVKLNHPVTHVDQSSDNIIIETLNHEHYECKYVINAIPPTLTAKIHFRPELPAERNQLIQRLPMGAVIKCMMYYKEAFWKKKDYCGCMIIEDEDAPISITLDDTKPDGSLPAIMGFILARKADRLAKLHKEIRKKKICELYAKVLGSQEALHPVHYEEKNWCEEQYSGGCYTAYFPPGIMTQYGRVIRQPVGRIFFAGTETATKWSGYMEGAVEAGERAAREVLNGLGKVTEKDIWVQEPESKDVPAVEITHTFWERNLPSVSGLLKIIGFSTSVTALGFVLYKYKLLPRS
# PROTOCOL: Inhibition of MAO-A (unknown origin) using tyramine as substrate after 30 to 60 mins by fluorescence plate reader analysis
Item-by-item account of IC50
The answer is to be given in µM; state only the numeric part.

INSERT INTO measurements (compound, result_number) VALUES
  ('CC(=O)NC[C@H]1CN(c2ccc(N3CCOCC3)c(F)c2)C(=O)O1 [LINEZOLID]', 24);

Would you kindly look at the next entry?
Sample O=C1C=CN(c2c(F)cc(N3C[C@H](CNc4ccon4)OC3=O)c(F)c2F)CC1 [CONTEZOLID] — what was its IC50?
103

====

# PROTOCOL: Half life in female rat at 45 mg/kg, po
# Type: ADME, organism-based
# Design: dose 45 mg/kg, route oral
# SETUP CONDITIONS: in vivo
MEASUREMENT NAME: half-life (h)
Give the number; h is assumed, so skip it.

Reported half-life for O=C1C=CN(c2c(F)cc(N3C[C@H](CNc4ccon4)OC3=O)c(F)c2F)CC1 [CONTEZOLID] : what is it?
1.87

====

# PROTOCOL: Half life in po dosed mouse
# Type: ADME, organism-based
# SETUP CONDITIONS: in vivo
MEASUREMENT NAME: half-life (h)
# number only, unit h dropped from output

Recorded half-life of O=C1C=CN(c2c(F)cc(N3C[C@H](CNc4ccon4)OC3=O)c(F)c2F)CC1 [CONTEZOLID] , please.
1

====

# PROTOCOL: AUC (0 to t) in male rat at 15 mg/kg, po
# Assay type: ADME, organism-based
# Set-up: dose 15 mg/kg, route oral
# SETUP CONDITIONS: plasma
MEASUREMENT NAME: AUC(0-t) (ng·h/mL)
Please state the figure in ng·h/mL; there is no need to write the unit.

State the recorded AUC(0-t) for this entry: O=C1C=CN(c2c(F)cc(N3C[C@H](CNc4ccon4)OC3=O)c(F)c2F)CC1 [CONTEZOLID]
34300

====

# PROTOCOL: Tmax in male rat at 15 mg/kg, po
# Assay type: ADME, organism-based
# Set-up: dose 15 mg/kg, route oral
# SETUP CONDITIONS: in vivo
MEASUREMENT NAME: Tmax (h)
I only need the number, in h, no unit after it.

Consider the compound O=C1C=CN(c2c(F)cc(N3C[C@H](CNc4ccon4)OC3=O)c(F)c2F)CC1 [CONTEZOLID] and give its measured Tmax.
1

====

# PROTOCOL: AUC (0 to t) in female rat at 5 mg/kg, po
# Assay type: ADME, organism-based
# Set-up: dose 5 mg/kg, route oral
# SETUP CONDITIONS: plasma
MEASUREMENT NAME: AUC(0-t) (ng·h/mL)
Express it in ng·h/mL; write the number only.

Fill in the blank: the reported AUC(0-t) of O=C1C=CN(c2c(F)cc(N3C[C@H](CNc4ccon4)OC3=O)c(F)c2F)CC1 is ____.
31500
